Each entry below lists one item and its recorded relative cell viability value.
# Test system: K562
# measurement_notes: relative cell viability (ATPlite) vs untreated control, with imatinib (fraction); higher = less toxic
# stated_conditions: 1 µM; 72 h; imatinib 0.125 µM
Returns: the value as a bare number; no unit string appended.

Guide cases for relative cell viability, answers given:
O=C1Nc2ccc(Cl)cc2/C1=C/c1cc(Cl)c(O)c(Cl)c1 [PKR Inhibitor, Negative Control]	0.721
COc1ccc(COc2ccc(Cc3cnc(N)nc3N)cc2OC)cc1	0.699

The compound listed as O=C1C(Cl)=C(N2C(=O)CCC2=O)C(=O)c2ccccc21 shows relative cell viability equal to 0.653

Consider CC[C@@H](CO)Nc1nc(NCc2ccc(-c3ccccn3)cc2)c2ncn(C(C)C)c2n1 [CR8, (S)-Isomer] . Its measured relative cell viability is 0.0705

Query CS(=O)(=O)c1ccc(-c2nc(-c3ccc(F)cc3)c(-c3ccncc3)[nH]2)cc1 yields relative cell viability of 0.703

relative cell viability reading for Cn1nc2c3c(cccc31)C(=O)c1ccccc1-2 [JNK Inhibitor, Negative Control] : 0.733

Lab book: relative cell viability of N#Cc1c(C2CCNCC2)cc(-c2c(O)cccc2OCC2CC2)nc1N noted as 0.718

# relative cell viability (compound: NC(=O)Nc1cc(-c2ccccc2)sc1C(N)=O ) is 0.802

The reported relative cell viability of the compound O=C(O)C=Cc1cc(Br)c(Br)c(Br)c1Br was 0.836

Looking up O=C(Nc1cc(C(F)(F)F)cc(C(F)(F)F)c1)c1cc(Cl)ccc1O , I found its relative cell viability recorded as 0.477

Entry under test: CCCCn1c2ccc(O)cc2c2c3c(c(-c4ccccc4Cl)cc21)C(=O)NC3=O . Its relative cell viability was 0.748

relative cell viability reading for CC(C)n1cnc2c(NCc3ccccc3)nc(NCCCO)nc21 : 0.797

Note to self: relative cell viability recorded for CC(=O)c1ccc(N2CCOCC2)cc1O was 0.782

The compound COc1cc2ncnc(Nc3ccc(NC(=O)c4ccccc4)cc3)c2cc1OC showed relative cell viability equal to 0.783

response.value for N#Cc1cc([N+](=O)[O-])c2sc(C(N)=O)[n+]([O-])c2c1 (field: relative cell viability) = 0.709

Short answer for Cc1nc(-c2ccccc2)c(-c2ccncc2)o1 : relative cell viability was 0.649

In plain terms, O=C(Nc1cc(Cl)cc2c1[nH]c1cnccc12)c1cccnc1 has a documented relative cell viability of 0.804

// NCCNc1ncc(C(N)=O)c(Nc2cccc(C(F)(F)F)c2)n1 : relative cell viability value = 0.773

The value of relative cell viability measured for the compound Nc1nccc(-c2c(-c3ccc(F)cc3)ncn2C2CCNCC2)n1 turned out to be 0.662

Just so you know, measured relative cell viability for CCN(CC)CCCCN1c2ccccc2Oc2ccc(Cl)cc21 came out at 0.77

relative cell viability in this record for Cc1cc2ncc(-c3ccccc3)nc2cc1C : 0.719

====

# Test system: K562
# measurement_notes: relative cell viability (ATPlite) vs untreated control (fraction); higher = less toxic
# stated_conditions: 1 µM; 72 h
parameter_measured: relative cell viability
Enter the number alone.

Nc1n[nH]c(N)c1N=Nc1ccc(O)cc1	0.839
CC[n+]1c(/C=C/N(C)c2ccccc2)n(-c2ccccc2)c2ccc(-c3nc4ccccc4s3)cc21	0.169
O=C1C(=Cc2ccc(O)cc2)C2=Nc3ccccc3C2=C1C1=C2C(=Nc3ccccc32)C(=Cc2ccc(O)cc2)C1=O	0.986
CSc1nc(-c2ccnc(NC(C)c3ccccc3)c2)c(-c2ccc(F)cc2)[nH]1 (stereo not given)	0.909
CCCCn1c2ccc(O)cc2c2c3c(c(-c4ccccc4Cl)cc21)C(=O)NC3=O	0.876
CCN(CC)C(=O)c1ccc(Nc2nc(OCC3CCCCC3)c3[nH]cnc3n2)cc1	0.775
Brc1c(Br)c(Br)c2n[nH]nc2c1Br	0.952
O=C(Nc1cc(Cl)cc2c1[nH]c1cnccc12)c1cccnc1	0.896
O=C1NC(=O)C(c2cn(CCCO)c3ncccc23)=C1c1cnccn1	0.915
CC[C@H](CO)Nc1nc(NCc2ccccc2O)c2ncn(C(C)C)c2n1	0.758

The molecule CCCCc1c(-c2ccc(O)cc2)[nH]c2nccnc12 showed relative cell viability equal to 0.884

relative cell viability in this record for Cc1cc2ncc(-c3ccccc3)nc2cc1C : 0.836

GET /value?item= NC(=O)Nc1cc(-c2ccccc2)sc1C(N)=O &field=relative cell viability returns 0.983

// recorded relative cell viability for O=C1Cc2c([nH]c3ccc([N+](=O)[O-])cc23)-c2ccccc2N1 : 0.906

Reported relative cell viability of CNc1cc2c(Nc3cccc(Br)c3)ncnc2cn1 : 0.995

Every entry's value here was drawn from the supplement of paper PMC4100887.
